molecular target: Retinoic acid receptor RXR-alpha (Homo sapiens); assay: ATG_RXRa_TRANS: Attagene TRANS-FACTORIAL HepG2 Assay for human Retinoid X Receptor alpha (RXRa) (AID 2283012)
Inconclusive results are not listed. The source made the active and inactive calls. The calls were made as follows: active = hit-call score of the fitted dose curve at least 0.9, where 1 is the maximum; inconclusive = response in the unintended direction; inactive = score below 0.9.
Labels: active, inactive

Compound | Label value
CC(=O)C=CC1C(C)=CCC(C)C1(C)C (stereo not drawn) | inactive
CCOC(=O)[C@H](C)O | inactive
O=C1OC(=O)c2cc(Oc3ccc4c(c3)C(=O)OC4=O)ccc21 | inactive
CCCOC(=O)CCCCC(=O)OCCC | inactive
CN(C)CCCN(C)C | inactive
Nc1ncn([C@@H]2O[C@H](CO)[C@@H](O)[C@H]2O)c(=O)n1 | inactive
O=C(Nc1ccccc1SSc1ccccc1NC(=O)c1ccccc1)c1ccccc1 | inactive
CC(C)(c1cc(Br)c(OCCO)c(Br)c1)c1cc(Br)c(OCCO)c(Br)c1 | active
CC(=O)OC(C)C | inactive
O=c1[nH]nc(-c2ccc([N+](=O)[O-])o2)o1 | inactive
CCCNC(=O)NS(=O)(=O)c1ccc(Cl)cc1 | inactive
CCCCCCCCCCCCCCCCCC#N | inactive
CCCCC/C=C\C/C=C\CCCCCCCC(=O)OC | inactive

---

target: Cellular tumor antigen p53 (Homo sapiens) (UniProt P04637); assay: TOX21_p53_BLA_p2_ratio: Tox21 HCT-116 p53 Agonism Beta-lactamase Assay, Ratio, Phase 2 (AID 2283592)
Sequence (P04637 whole entry, looked up): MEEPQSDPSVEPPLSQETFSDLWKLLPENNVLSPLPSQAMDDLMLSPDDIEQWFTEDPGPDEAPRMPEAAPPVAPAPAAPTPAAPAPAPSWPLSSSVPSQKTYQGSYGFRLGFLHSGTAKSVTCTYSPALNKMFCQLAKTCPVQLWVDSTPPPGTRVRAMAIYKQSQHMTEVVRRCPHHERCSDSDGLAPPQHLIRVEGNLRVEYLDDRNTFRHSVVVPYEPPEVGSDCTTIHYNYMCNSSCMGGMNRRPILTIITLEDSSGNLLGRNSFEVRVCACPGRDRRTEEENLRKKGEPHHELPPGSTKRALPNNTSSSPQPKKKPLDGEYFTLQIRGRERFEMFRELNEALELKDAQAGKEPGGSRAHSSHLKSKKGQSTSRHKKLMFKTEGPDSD
Records with an inconclusive call do not appear. Activity calls are given as the source filed them. Rule for the calls: active = hit-call score of the fitted dose curve at least 0.9, where 1 is the maximum; inconclusive = response in the unintended direction; inactive = score below 0.9.

Compound | System under test | AC50
CCOC(=O)Cc1cccc2ccccc12 | Cellular tumor antigen p53 (Homo sapiens) (UniProt P04637) | inactive
Cn1c([N+](=O)[O-])cnc1COC(N)=O | Cellular tumor antigen p53 (Homo sapiens) (UniProt P04637) | inactive
CNC(=S)N(C)C | Cellular tumor antigen p53 (Homo sapiens) (UniProt P04637) | inactive
C=CC(=O)NC(C)(C)CS(=O)(=O)O | Cellular tumor antigen p53 (Homo sapiens) (UniProt P04637) | inactive
CC(C)CCCCCOC(=O)CCS | Cellular tumor antigen p53 (Homo sapiens) (UniProt P04637) | inactive
O=CN1CCCCC1 | Cellular tumor antigen p53 (Homo sapiens) (UniProt P04637) | inactive
[Cl][Bi]([Cl])([c]1ccccc1)([c]1ccccc1)[c]1ccccc1 | Cellular tumor antigen p53 (Homo sapiens) (UniProt P04637) | 18.4 µM (active)
O=C1CCCCCN1SSN1CCCCCC1=O | Cellular tumor antigen p53 (Homo sapiens) (UniProt P04637) | 86.6 µM (active)
CCN(CCO)c1cccc(C)c1 | Cellular tumor antigen p53 (Homo sapiens) (UniProt P04637) | inactive
[Cl][In]([Cl])[Cl] | Cellular tumor antigen p53 (Homo sapiens) (UniProt P04637) | inactive
O=c1[nH]nc(-c2ccc([N+](=O)[O-])o2)o1 | Cellular tumor antigen p53 (Homo sapiens) (UniProt P04637) | inactive
CCCCCCC1(C)CCC(=O)O1 (centres undefined) | Cellular tumor antigen p53 (Homo sapiens) (UniProt P04637) | inactive
CCOC(=O)c1ccccc1C(=C1C=C(Br)C(=O)C(Br)=C1)c1cc(Br)c(O)c(Br)c1 | Cellular tumor antigen p53 (Homo sapiens) (UniProt P04637) | 10.2 µM (active)
CCC(C)(C)C1CCCCC1OC(C)=O (centres undefined) | Cellular tumor antigen p53 (Homo sapiens) (UniProt P04637) | inactive
